All values here come from paper PMC8053501.

Tested on: diabetes mellitus patients
procedure-text: Acute kidney injury
Type: in vivo, human
conditions: primary endpoint, first 90 days; patients above 55 years
Labelling field: enter T if recorded Events During the 90 days (AKI) is less than 70. Enter F if it equals or exceeds that cut-off.

>>> print(df.to_string())
                                   compound  qualitative_label
0  CC1(C)S[C@@H]2[C@H](NC(=O)[C@H](N)c3ccc(O)cc3)C(=O)N2[C@H]1C(=O)O [Amoxicillin, amoxicillin]                  T
1  N#C[C@@H]1CCCN1C(=O)CNC12CC3CC(CC(O)(C3)C1)C2 [Vildagliptin, vildagliptin]                  F
2  CCOc1ccc(Cc2cc([C@@H]3O[C@H](CO)[C@@H](O)[C@H](O)[C@H]3O)ccc2Cl)cc1 [Dapagliflozin, dapagliflozin]                  F
3  COc1ccc2c(c1)c(CC(=O)O)c(C)n2C(=O)c1ccc(Cl)cc1 [Indomethacin, indomethacin]                  F
4  OC[C@H]1O[C@@H](c2ccc(F)c(Cc3cc4ccccc4s3)c2)[C@H](O)[C@@H](O)[C@@H]1O [Ipragliflozin, ipragliflozin]                  T
5  Cn1c(=O)cc(N2CCC[C@@H](N)C2)n(Cc2ccccc2C#N)c1=O [Alogliptin, alogliptin]                  F

###

conditions: normal mice, oral gavage, 3mg/kg; Plasma; 9h
measured-quantity: Drug concentration, time course

In [3]: df
Out[3]:
                                   compound  experimental_value
0  CC1(C)S[C@@H]2[C@H](NC(=O)[C@H](N)c3ccc(O)cc3)C(=O)N2[C@H]1C(=O)O [Amoxicillin, amoxicillin]                   0
1  Cn1c(=O)cc(N2CCC[C@@H](N)C2)n(Cc2ccccc2C#N)c1=O [Alogliptin, alogliptin]                  50
2  Cc1ccc(-c2cc(C(F)(F)F)nn2-c2ccc(S(N)(=O)=O)cc2)cc1 [Celecoxib, celecoxib]                  30
3  CC#CCn1c(N2CCC[C@@H](N)C2)nc2c1c(=O)n(Cc1nc(C)c3ccccc3n1)c(=O)n2C [Linagliptin, linagliptin]                  50

###

Tested on: diabetes mellitus patients
procedure-text: Acute kidney injury
Format: in vivo, human
conditions: Endpoint Diagnosis with 1047 Outcome; multivariate; metformin as reference
Reported Association with AKI, Adjusted (95% CI) values follow for various compounds
measured-quantity: Association with AKI, Adjusted (95% CI)

>>> print(df.to_string())
                                   compound         experimental_system  experimental_value
0  Cn1c(=O)cc(N2CCC[C@@H](N)C2)n(Cc2ccccc2C#N)c1=O  diabetes mellitus patients    1.43 (1.31–2.04)
1  CC1=C(C(=O)O)N2C(=O)[C@@H](NC(=O)[C@H](N)c3ccccc3)[C@H]2SC1  diabetes mellitus patients    1.52 (1.31–2.16)
2  OC[C@H]1O[C@@H](c2ccc(F)c(Cc3cc4ccccc4s3)c2)[C@H](O)[C@@H](O)[C@@H]1O  diabetes mellitus patients    0.86 (0.69–1.31)
3  CCOc1ccc(Cc2cc([C@@H]3O[C@H](CO)[C@@H](O)[C@H](O)[C@H]3O)ccc2Cl)cc1  diabetes mellitus patients    0.84 (0.72–1.32)
4  N#C[C@@H]1CCCN1C(=O)CNC12CC3CC(CC(O)(C3)C1)C2  diabetes mellitus patients    1.18 (0.92–1.35)
5  OC[C@H]1O[C@@H](c2ccc(Cl)c(Cc3ccc(O[C@H]4CCOC4)cc3)c2)[C@H](O)[C@@H](O)[C@@H]1O  diabetes mellitus patients    0.76 (0.58–1.18)
6  CC1(C)S[C@@H]2[C@H](NC(=O)[C@H](N)c3ccc(O)cc3)C(=O)N2[C@H]1C(=O)O  diabetes mellitus patients    1.36 (1.06–1.54)
7  COc1ccc2c(c1)c(CC(=O)O)c(C)n2C(=O)c1ccc(Cl)cc1  diabetes mellitus patients    2.29 (2.05–2.65)
8  CC(C)Cc1ccc(C(C)C(=O)O)cc1 (stereo not drawn)  diabetes mellitus patients    2.41 (1.91–2.54)
